measured-on: c-Met (baculovirus expressed human c-Met kinase domain P948-S1343) (Homo sapiens, UniProt P08581)
Construct: human c-Met kinase domain P948-S1343; host or cells: baculovirus expression
Sequence (P08581 1011-1343 limits assumed): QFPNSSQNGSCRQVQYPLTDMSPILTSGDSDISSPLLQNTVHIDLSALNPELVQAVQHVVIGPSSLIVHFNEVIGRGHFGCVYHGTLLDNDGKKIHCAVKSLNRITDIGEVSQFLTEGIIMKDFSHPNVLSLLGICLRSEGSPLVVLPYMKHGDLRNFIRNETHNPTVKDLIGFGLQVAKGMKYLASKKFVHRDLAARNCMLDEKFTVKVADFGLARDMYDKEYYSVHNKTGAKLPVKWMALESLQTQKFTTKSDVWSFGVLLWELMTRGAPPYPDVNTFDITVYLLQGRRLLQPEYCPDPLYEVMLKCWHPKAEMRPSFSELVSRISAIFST
run-description: c-Met Luciferase-Coupled Chemiluminescent Kinase assay (LCCA);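 also: kinase activity read as percent ATP left after reaction, by luciferase-luciferin chemiluminescence, with 1 µM ATP and 1 µM poly-EY substrate, 2 h at ambient temperature, 10-point dose-response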
Type: biochemical
pIC50: −log10 of the molar value.
# maps each entry to its pIC50
reported-metric: pIC50

molecule=COc1cc2c(Oc3ccc(NC(=O)[C@@]4(C(=O)Nc5ccc(F)cc5)[C@H](C)[C@@H]4C)cc3F)ncnc2cc1OCCCN1CCOCC1 result="6.30 to 7.30"
molecule=COc1cc2c(Oc3ccc(NC(=O)C4(C(=O)Nc5ccc(F)cc5)CC4)cc3F)ccnc2cc1OCCCN1CCN(C)CC1 result="> 7.30"
molecule=COc1cc2c(Oc3ccc(NC(=O)[C@]4(C(=O)Nc5ccc(F)cc5)C[C@H]4C)cc3F)ccnc2cc1OCCCN1CCN(C(=O)OC(C)(C)C)CC1 result="> 7.30"
molecule=COc1cc2c(Oc3ccc(NC(=O)C4(C(=O)Nc5ccc(F)cc5)CCC4)cc3F)ncnc2cc1OCCCN1CCNCC1 result="> 7.30"
molecule="COc1cc2nccc(Oc3ccc(N4CC(Cc5ccccc5)NC4=O)cc3)c2cc1OC (centres unmarked)" result="5.30 to 6.30"
molecule="COc1cc2nccc(Oc3ccc(NC(=O)C(CC(C)C)N(C)Cc4ccccc4)cc3)c2cc1OC (centres unmarked)" result="5.30 to 6.30"
molecule="CCN(CC)CCOc1cc2ncnc(Oc3ccc(NC(=O)C4(C(=O)Nc5ccc(F)cc5)CC4(C)C)cc3F)c2cc1OC (centres unmarked)" result="> 7.30"
molecule=COc1cc2nccc(Oc3cc(Cl)c(NC(=O)C4(C(=O)Nc5ccc(F)cc5)CC4)cc3C)c2cc1OC result="> 7.30"
molecule=COc1cc2nccc(Oc3ccc(N4CCN(Cc5ccccc5)CC4=O)cc3)c2cc1OC result="5.30 to 6.30"
molecule="COc1cc2nccc(Oc3ccc(NC4=NC(Cc5ccccc5)CO4)cc3)c2cc1OC (centres unmarked)" result="5.30 to 6.30"
molecule=COc1cc2c(Oc3ccc(NC(=O)C4(C(=O)Nc5ccc(F)cc5)CCC4)cc3F)ncnc2cc1OCCCN1CCN(C)CC1 result="> 7.30"
molecule=CCN(CC)CCCOc1cc2nccc(Oc3ccc(NC(=O)[C@]4(C(=O)Nc5ccc(F)cc5)C[C@H]4C)cc3F)c2cc1OC result="> 7.30"
molecule=CCN(CC)CCOc1cc2nccc(Oc3ccc(NC(=O)[C@]4(C(=O)Nc5ccc(F)cc5)C[C@H]4C)cc3F)c2cc1OC result="> 7.30"
molecule=COc1cc2nccc(Oc3ccc(NC(=O)C4(C(=O)Nc5cccc(CN6CCCC6)c5)CC4)cc3)c2cc1OC result="> 7.30"
molecule=COc1cc2nccc(Oc3ccc(NC(=O)C4(C(=O)Nc5cccc(CN6CCOCC6)c5)CC4)cc3)c2cc1OC result="6.30 to 7.30"
molecule=CCN(CC)CCOc1cc2ncnc(Oc3ccc(NC(=O)[C@]4(C(=O)Nc5ccc(F)cc5)C[C@H]4C)cc3F)c2cc1OC result="> 7.30"
molecule=COc1cc2nccc(Oc3cc(F)c(NC(=O)C4(C(=O)Nc5ccc(F)cc5)CC4)cc3F)c2cc1OC result="> 7.30"
molecule=CCN(CC)CCCOc1cc2ncnc(Oc3ccc(NC(=O)C4(C(=O)Nc5ccc(F)cc5)CCC4)cc3F)c2cc1OC result="> 7.30"
molecule="COc1cc2c(Oc3ccc(NC(=O)C4(C(=O)Nc5ccc(F)cc5)[C@H](C)[C@H]4C)cc3F)ccnc2cc1OCCCN1CCOCC1 (some centres unmarked)" result="> 7.30"
molecule=COc1cc2c(Oc3ccc(NC(=O)[C@]4(C(=O)Nc5ccc(F)cc5)C[C@H]4C)cc3F)ncnc2cc1OCCCN1CCOCC1 result="> 7.30"

Cited source: patent US8476298B2
